System: MDCK cells
Experiment: Screening phospholipidosis assay (LipidTOX Red / NucBlue Live fluorescence ratio)
Details: LipidTOX Red to NucBlue Live fluorescence ratio, 24 h, 15 μM
assay_metric: Ratio (15 μM)
Returns: the value as a bare number; no unit string appended.

| molecule | numeric_readout |
| --- | --- |
| CCC(=O)O[C@@H](O[P@](=O)(CCCCc1ccccc1)CC(=O)N1C[C@H](C2CCCCC2)C[C@H]1C(=O)O)C(C)C | 0.67 |
| CN1CCN(CCCN2c3ccccc3Sc3ccc(C(F)(F)F)cc32)CC1 | 0.81 |
| O=C(O)[C@@H]1C[C@@H](C2CCCCC2)CN1C(=O)CP(=O)(O)CCCCc1ccccc1 | 0.19 |

Query block: Please look up its Ratio (15 μM): `CC[C@H](NC(=O)c1c(C)c(-c2ccccc2)nc2ccccc12)c1ccccc1`
Result block: 0.34
